# Test system: AsPC-1 cells
# procedureSummary: AsPC-1 CTG proliferation assay (120 h) (pancreatic cancer, G12D)
# Assay type: cell-based
# conditionContext: Homo sapiens, ASPC1
Reported log10 of IC50 values are given for each entry in this list.
experimentalReadout: log10 of IC50 (log10 of the value in nM)

- molSmiles: "C[C@H](Oc1cc(N2CCNC[C@@]23CCOC3)nc(-c2noc3c2CCC[C@@]32CCCc3sc(N)c(C#N)c32)n1)[C@@H]1CCCN1C"
  log10 of IC50: 2.96
- molSmiles: "CC(C)N1CCCN(c2cc(-c3ccn(C)n3)nc(-c3noc4c3CCC[C@@]43CCCc4sc(N)c(C#N)c43)n2)[C@@H](C)C1"
  log10 of IC50: 3.56
- molSmiles: "C[C@H](Oc1cc(-n2nccc2-c2ccncc2)nc(-c2noc3c2CCC[C@@]32CCCc3sc(N)c(C#N)c32)n1)[C@@H]1CCCN1C"
  log10 of IC50: 3.55
- molSmiles: "C[C@H](Oc1cc(-n2cc3ccn([C@@H]4CCOC4)c(=O)c3n2)nc(-c2noc3c2CCC[C@@]32CCCc3sc(N)c(C#N)c32)n1)[C@@H]1CCCN1C"
  log10 of IC50: 2.68
- molSmiles: "C[C@@H]1CN(c2cc(O[C@@H](C)[C@@H]3C[C@@H](F)CN3C)nc(-c3noc4c3CCC[C@@]43CCCc4sc(N)c(C#N)c43)n2)CC2(CC2)N1"
  log10 of IC50: 2.40
- molSmiles: "C[C@H](Oc1cc(N2C[C@H]3CN(C)C[C@H]3C2)nc(-c2noc3c2CCC[C@@]32CCCc3sc(N)c(C#N)c32)n1)[C@@H]1CCCN1C"
  log10 of IC50: 3.15

These measurements were taken from patent US20240174690A1.
